Reference source for all entries: the METLIN SMRT retention time set (Domingo-Almenara et al. 2019)

Some molecules, each annotated with its measured RP-LC retention time.
assay_method_text: gradient 5% acetonitrile 3 min, to 50% in 2 min, to 85% in 15 min, held 3 min, 100 µL/min
settings: column: Zorbax Extend-C18 2.1 x 50 mm; eluents: water / acetonitrile, 0.1% formic acid

Look over these answered cases.
>  <molecule>
Cc1cc(=O)n(CC(=O)Nc2ccc(Br)cc2)c(N2CCCCC2)n1

>  <RP-LC retention time>
716 s

$$$$
>  <molecule>
COc1ccc2c(c1)C1(CCN(C(=O)COc3ccc(Cl)cc3)C1)C(=O)N2C (configuration not stated)

>  <RP-LC retention time>
878 s

$$$$
>  <molecule>
COc1ccccc1CNC(=O)Cn1cccc1-c1nnc(-c2ccccc2)o1

>  <RP-LC retention time>
920 s

$$$$
>  <molecule>
CN1CCN(S(=O)(=O)c2cccc(-c3nc(-c4ccccc4)no3)c2)CC1

>  <RP-LC retention time>
694 s

$$$$
>  <molecule>
CCc1nc(-c2csc(S(=O)(=O)N3CCC(C(=O)NCc4ccc(Cl)cc4)CC3)c2)no1

>  <RP-LC retention time>
994 s

$$$$
>  <molecule>
C=CCN1C(=O)COc2ccc(-c3csc(NC(=O)/C=C/c4ccc(OCC)c(OC)c4)n3)cc21

>  <RP-LC retention time>
1050 s

$$$$
>  <molecule>
CS(=O)(=O)c1nc2ccc(NS(=O)(=O)c3ccc(Br)s3)cc2s1

>  <RP-LC retention time>
888 s

$$$$
>  <molecule>
COc1ccc(-c2cc(C(=O)N3CCN(c4c(C)n(C)c(=O)n(C)c4=O)CC3)c3ccccc3n2)cc1

>  <RP-LC retention time>
806 s

$$$$
>  <molecule>
CCN1CCN(c2cc(C)c3cc(NC(=O)COc4ccc(OC)cc4)ccc3n2)CC1

>  <RP-LC retention time>
597 s

$$$$
>  <molecule>
CSc1nc2ccc3nc(NC(=O)c4cc(C)no4)sc3c2s1

>  <RP-LC retention time>
1010 s

$$$$

Would you mind telling me what RP-LC retention time value was observed for COc1ccc(-c2noc(NCC3CCCO3)n2)cc1 (configuration not stated) ?
765 s

Would you mind telling me what RP-LC retention time value was observed for O=C(Cc1csc(Nc2ccc(Cl)cn2)n1)Nc1ccc(OC(F)(F)F)cc1 ?
1030 s

Would you mind telling me what RP-LC retention time value was observed for CCn1cc(-c2ccc(Cl)cc2)cc1C(=O)NCCOC ?
954 s

Would you mind telling me what RP-LC retention time value was observed for Cc1nn(CC(=O)NC2CCCC2)c(=O)c2c(-n3cccc3)n(-c3cccc(F)c3)nc12 ?
964 s

Would you mind telling me what RP-LC retention time value was observed for COc1cccc(OCC(O)CN2CCN(c3ccc(Cl)cc3)CC2)c1 (configuration not stated) ?
724 s

Would you mind telling me what RP-LC retention time value was observed for Cc1ccc(Cc2nc(C3CC(=O)N(c4ccc(Cl)cc4)C3)no2)cc1 (configuration not stated) ?
1060 s

Would you mind telling me what RP-LC retention time value was observed for CC(C)(C)c1ccc(S(=O)(=O)N2CCCCC2C(=O)N2CCN(c3ccccc3F)CC2)cc1 (configuration not stated) ?
1280 s

Would you mind telling me what RP-LC retention time value was observed for CCN1CCN(c2nc(F)c(F)c(S(=O)(=O)CCNc3ccccc3)c2F)CC1 ?
689 s
